target: T. gondii ME49Luc in IFN-y HeLa, luciferase, 72 h; experiment: T. gondii growth inhibition with IFN-gamma, dose response, cell-based, ME49Luc, HeLa, luciferase, 72 h (AID 1259418)
Records with an inconclusive call do not appear. Calls of active or inactive are those of the source.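 The calls were made as follows: active = fitted half-maximal concentration of signal decrease at or below twice the sample's top tested concentration; inconclusive = flat curve between -70 and -30 percent, or poor fit; inactive = flat within 30 percent, signal rise, or potency above limit.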
PARAMETER_MEASURED: AC50

Reference set (4 entries):
Cc1ccccc1-c1ccc([C@H]2[C@H](CO)N3C(=O)CN(C(=O)c4ccncc4)C[C@@H]23)cc1 ... 21.5 µM
CCc1nc(OCC(=O)Nc2ccccc2C(=O)OC)c2ccccc2n1 ... > 39 µM (inactive)
CC(C)Cc1ccc(S(=O)(=O)N2CCC[C@@H]2C(=O)NCCc2csc(-c3ccccc3)n2)cc1 ... 12.4 µM
CCOc1ccc(-c2nc(CN(c3ccccc3)S(=O)(=O)c3cccs3)c(C)o2)cc1 ... 15.2 µM

Now for another entry.
**Query** Form field - read-out: AC50; system: T. gondii ME49Luc in IFN-y HeLa, luciferase, 72 h; submitted item: COc1ccc(S(=O)(=O)N2CCc3c([nH]c4ccccc34)C2c2cc(F)ccc2F)cc1 (stereo not given)
**Result** 17.1 µM

###

biological target: T. gondii ME49Luc in IFN-y HeLa, luciferase, 72 h; test: T. gondii growth inhibition with IFN-gamma, dose response, cell-based, ME49Luc, HeLa, luciferase, 72 h (AID 1259418)
Inconclusive results are not listed. Calls of active or inactive are those of the source.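 How the source made its calls: active means fitted half-maximal concentration of signal decrease at or below twice the sample's top tested concentration; inconclusive means flat curve between -70 and -30 percent, or poor fit; inactive means flat within 30 percent, signal rise, or potency above limit.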
Hello, when you answer, please use one of the following outcomes: label 1 for active, label 0 for inactive

**Query** Short answer needed: outcome of this test for COc1ccc(-c2nc3c(s2)CN(C(=O)Nc2cccc(C)c2)CC3)cc1OC ?
**Result** label 0

**Query** What about this compound? Cc1ccc(-c2nc(CN3CCN(C(=O)Nc4ccc(C)c(C)c4)CC3)c(C)o2)cc1
**Result** label 1

**Query** Next compound: CCOc1ccccc1-n1c(C(C)N2CCN(C(=O)COc3ccc(Cl)cc3)CC2)nc2ccccc2c1=O (stereo not drawn)
**Result** label 1

**Query** Another compound to check: CCCCC(=O)N1CCC2(CC1)Nc1ccc(Cl)cc1-n1cccc12
**Result** label 0

**Query** Also check COc1ccc(-c2nc(CN(c3ccccc3OC)S(=O)(=O)c3ccccc3)c(C)o2)cc1OC
**Result** label 1

**Query** CCOc1ccc(-c2nc(CN(c3ccccc3C)S(=O)(=O)c3cccs3)c(C)o2)cc1 ?
**Result** label 1

**Query** Input CCCC#Cc1ccc([C@@H]2[C@H]3CN(C(=O)Nc4cccc(F)c4)CC(=O)N3[C@H]2CO)cc1
**Result** label 1

###

target: T. gondii ME49Luc in IFN-y HeLa, luciferase, 72 h; assay: T. gondii growth inhibition with IFN-gamma, dose response, cell-based, ME49Luc, HeLa, luciferase, 72 h (AID 1259418)
Inconclusive results are not listed.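 The calls were made as follows: active = fitted half-maximal concentration of signal decrease at or below twice the sample's top tested concentration; inconclusive = flat curve between -70 and -30 percent, or poor fit; inactive = flat within 30 percent, signal rise, or potency above limit.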
Would you mind answering with one of these outcomes? active, inactive

COc1ccc(-c2nc3c(s2)CN(S(=O)(=O)c2ccc(C)c(C)c2)CC3)cc1 ... active

Now look at this one.
**Query** Given COc1ccc(-c2ccc3c(c2)[C@@H]2[C@@H](CCN2C(=O)c2cccc(F)c2)[C@H](CO)N3)cc1 , state the outcome it received in this test.
**Result** active

// provenance: PubChem BioAssay AID1259418
